For each entry below, report its EC50 value.
# target_system: androgen receptor (AR-LBD) (Rattus norvegicus)
# Construct: 5 μL of 2×AR-LBD/Fluoromone AL Red Complex contained in the kit; purchased Invitrogen
# Sequence (P15207 651-882 limits assumed): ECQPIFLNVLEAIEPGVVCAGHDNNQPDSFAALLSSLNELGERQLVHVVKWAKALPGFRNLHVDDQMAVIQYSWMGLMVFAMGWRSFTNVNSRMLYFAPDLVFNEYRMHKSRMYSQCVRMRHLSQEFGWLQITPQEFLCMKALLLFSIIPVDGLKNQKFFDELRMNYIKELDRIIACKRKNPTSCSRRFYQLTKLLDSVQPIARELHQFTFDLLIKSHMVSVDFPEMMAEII
# assay_notes: Evaluation of androgen receptor affinity (PolarScreen Androgen Receptor Competitor Assay Kit, Red; fluorescence polarization)
# setup_conditions: 22° C. for 5 hours, relative to binding rate of 1 μM DHT, read-out: AR affinity (pEC50) (converted)

Item: Cc1sc(N(CCN2CCCC2=O)c2ccc(C#N)cc2)nc1C(=O)NS(C)(=O)=O Test system: androgen receptor (AR-LBD) (Rattus norvegicus) Read-out: EC50 Value: ? > 2 µM

Form field: EC50 recorded for Cc1sc(N(Cc2ccccc2)c2ccc(OCC(=O)O)cc2)nc1C(=O)NS(C)(=O)=O with androgen receptor (AR-LBD) (Rattus norvegicus) (enter value) > 2 µM

Param readout = EC50; param system = androgen receptor (AR-LBD) (Rattus norvegicus); param query = Cc1sc(N(Cc2ccc(Cl)cc2)Cc2csc3cc(C(F)(F)F)ccc23)nc1C(=O)NS(C)(=O)=O ; response: value > 2 µM

I'm curious: which EC50 was measured for COCCN(c1ccc(C#N)cc1)c1nc(C(=O)NS(C)(=O)=O)c(C)s1 tested on androgen receptor (AR-LBD) (Rattus norvegicus)? > 2 µM
